# targetOfAssay: T-cell receptor (TCR)-CD3 interaction, human (TCR alpha chain TRAV4)
# testMethodNotes: potency of TCR-CD3 interaction inhibitors, dose response, biochemical, fluorescence, TAMRA-labeled TCR probe (AID 686957)
# experimentalParameters: TCR-CD3 binding
Active and inactive are the calls of the source. The rule behind the calls is not given here.
Let's look at some compounds and their measured IC50.

>  <molSmiles>
O=C(N/N=C/c1cc(Cl)cc([N+](=O)[O-])c1O)c1cccc(S(=O)(=O)N2CCOCC2)c1

>  <IC50>
> 94.1 µM (inactive)

$$$$
>  <molSmiles>
Cc1ccc(S(=O)(=O)N2CCC(C(=O)NNC(=O)c3ccccc3O)CC2)cc1C

>  <IC50>
> 94.1 µM (inactive)

$$$$
>  <molSmiles>
Cn1c(=O)c(C(=O)NNC(=O)c2ccccc2F)c(O)c2ccccc21

>  <IC50>
> 94.1 µM (inactive)

$$$$

All figures here come from PubChem BioAssay AID686957.
